Origin of the recorded values: the supplement of paper PMC9233669

test system: biotinyl-Met-oxazolone; experiment: self-aminoacylation, catalytic enhancement (BMO) (fold over background); higher = more active; k-Seq, kA / k0A0; sequences stand for … in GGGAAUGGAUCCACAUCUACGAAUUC…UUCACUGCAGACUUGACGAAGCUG
This sample holds only a part of the variants without activity.
Entries are grouped by self-aminoacylation into these classes: lower bin = under 2, middle bin = from 2 up to 6, upper bin = 6 and over

- AUUCAUCUAGGUCAUCGCGUG [Fam2.2 aminoacylation ribozyme variant]: upper bin

Which band does AUUCACCUAGGUCAUGGGGCG [Fam2.2 aminoacylation ribozyme variant] fall in?
middle bin

Which band does AGGUCUGCUAAUAGUCGCAAG [Fam3.1 aminoacylation ribozyme variant] fall in?
middle bin

Which band does AUUCACAUAAGUCAUCGGGUG [Fam2.2 aminoacylation ribozyme variant] fall in?
upper bin

Which band does AUUAACCUAGGUGAUCGGGUG [Fam2.2 aminoacylation ribozyme variant] fall in?
middle bin

Which band does CUACUUCAAUCAAUCGGUCGG [Fam1A.1 aminoacylation ribozyme variant] fall in?
lower bin

Which band does AUUACCCUUGUCAUCAAGUGA [Fam2.1 aminoacylation ribozyme variant] fall in?
middle bin

Which band does UAGUAUGCUAAUAGUCGCAAG [Fam3.1 aminoacylation ribozyme variant] fall in?
lower bin

Which band does CUACUUCAAACACUCGGUCUC [Fam1A.1 aminoacylation ribozyme variant] fall in?
lower bin

Which band does AAGUUUCCUAAUAGUCGCAGG [Fam3.1 aminoacylation ribozyme variant] fall in?
middle bin

Which band does AUAACCCUGGUCAACGAGUGA [Fam2.1 aminoacylation ribozyme variant] fall in?
upper bin

Which band does GGACACUUCAAGCAAUCGGUC [Fam1B.1 aminoacylation ribozyme variant] fall in?
middle bin

Which band does CCACACUUCUAACAAUCGGUC [Fam1B.1 aminoacylation ribozyme variant] fall in?
lower bin

Which band does AUUACUCUGGUUAUCGAGUGA [Fam2.1 aminoacylation ribozyme variant] fall in?
upper bin

Which band does AUUCAACUAGGUCAACGGGUG [Fam2.2 aminoacylation ribozyme variant] fall in?
middle bin

Which band does CUACUUCAAACAAUGUGUCUG [Fam1A.1 aminoacylation ribozyme variant] fall in?
lower bin

Which band does AGUCAUCUAGGUCAUCGGGUG [Fam2.2 aminoacylation ribozyme variant] fall in?
upper bin

====

system: biotinyl-Trp-oxazolone; assay: self-aminoacylation, catalytic enhancement (BWO) (fold over background); higher = more active; k-Seq, kA / k0A0; sequences stand for … in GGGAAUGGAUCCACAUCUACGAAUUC…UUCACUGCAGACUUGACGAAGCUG
Variants at the floor of the assay were thinned out.
Answer NO if self-aminoacylation is under 1, and YES if it is 1 or more.

Solved cases (8 shown):
* AAGUAUGCUAAUAGUCGCCAG [Fam3.1 aminoacylation ribozyme variant] | YES
* AAGUUUGCUAACAGUCGCAAG [Fam3.1 aminoacylation ribozyme variant] | YES
* CAGUUUGCUAUUAGUCGCAAG [Fam3.1 aminoacylation ribozyme variant] | YES
* AUUACCCAGGUCCUCGAGUGA [Fam2.1 aminoacylation ribozyme variant] | YES
* AGUCACCUAGGUCAUAGGGUG [Fam2.2 aminoacylation ribozyme variant] | YES
* AAGUUUGCUAAUAGUAGCGAG [Fam3.1 aminoacylation ribozyme variant] | YES
* AUCCCCCUAGGUCAUCGGGUG [Fam2.2 aminoacylation ribozyme variant] | YES
* CCACAGUUCAAGCAAUCGGUA [Fam1B.1 aminoacylation ribozyme variant] | NO

Identify whether the reported self-aminoacylation of the following sequence is 1 or greater: AUUCACCCAGGCCAUCGGGUG [Fam2.2 aminoacylation ribozyme variant]
YES

Identify whether the reported self-aminoacylation of the following sequence is 1 or greater: AUUACCCUGGUUAUCGGGUGA [Fam2.1 aminoacylation ribozyme variant]
YES

Identify whether the reported self-aminoacylation of the following sequence is 1 or greater: CCACACUUCAAGAAAUCGCUC [Fam1B.1 aminoacylation ribozyme variant]
NO

Identify whether the reported self-aminoacylation of the following sequence is 1 or greater: CCACACCUCAAGCAAGCGGUC [Fam1B.1 aminoacylation ribozyme variant]
YES

Identify whether the reported self-aminoacylation of the following sequence is 1 or greater: AUUCACCUCUGUCAUCGGGUG [Fam2.2 aminoacylation ribozyme variant]
YES

Identify whether the reported self-aminoacylation of the following sequence is 1 or greater: AAGUUUGCUAAUGGUCGAAAG [Fam3.1 aminoacylation ribozyme variant]
NO

====

test system: biotinyl-Phe-oxazolone; assay: self-aminoacylation, catalytic enhancement (BFO) (fold over background); higher = more active; k-Seq, kA / k0A0; sequences stand for … in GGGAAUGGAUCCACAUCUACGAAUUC…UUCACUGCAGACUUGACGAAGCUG
Fewer inactive variants are shown than the library holds.
Answer not met if self-aminoacylation is under 2, and met if it is 2 or more.

Solved cases (6 shown):
• AAUUUUGCAAAUAGUCGCAAG [Fam3.1 aminoacylation ribozyme variant] = met
• AUUCACGUAGGUAAUCGGGUG [Fam2.2 aminoacylation ribozyme variant] = met
• CUUACCCUGGUGAUCGAGUGA [Fam2.1 aminoacylation ribozyme variant] = met
• CCACACUUCAGGCAAUCGCUC [Fam1B.1 aminoacylation ribozyme variant] = met
• AUUCACCUAGUUCAUCGGGUC [Fam2.2 aminoacylation ribozyme variant] = not met
• CCACACUUCAGGCAAUCCGUC [Fam1B.1 aminoacylation ribozyme variant] = met

Identify whether the reported self-aminoacylation of the following sequence is 2 or greater: AAGUUUUCUAAUAGCCGCAAG [Fam3.1 aminoacylation ribozyme variant]
met

Identify whether the reported self-aminoacylation of the following sequence is 2 or greater: CCAUACUUCAAGCGAUCGGUC [Fam1B.1 aminoacylation ribozyme variant]
not met

Identify whether the reported self-aminoacylation of the following sequence is 2 or greater: CUACUUCAAACACUCGGUCUC [Fam1A.1 aminoacylation ribozyme variant]
not met

Identify whether the reported self-aminoacylation of the following sequence is 2 or greater: AUUACCCUGGUCAUCGCGCGA [Fam2.1 aminoacylation ribozyme variant]
met

====

test system: biotinyl-Ile-oxazolone; assay: self-aminoacylation, catalytic enhancement (BIO) (fold over background); higher = more active; k-Seq, kA / k0A0; sequences stand for … in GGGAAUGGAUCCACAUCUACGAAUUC…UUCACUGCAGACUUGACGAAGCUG
This sample holds only a part of the variants without activity.
experimental readout: self-aminoacylation
// return a plain number; no unit text

* GCACACUUCACGCAAUCGGUC [Fam1B.1 aminoacylation ribozyme variant] | 2.5
* AUUACCCUGGUCAUCGAGUUC [Fam2.1 aminoacylation ribozyme variant] | 1.02
* AAGUUUUCUAAUAGUCGCAUG [Fam3.1 aminoacylation ribozyme variant] | 1.78

// field: self-aminoacylation; key: AUGCACCUAGGGCAUCGGGUG [Fam2.2 aminoacylation ribozyme variant] ; value = 2.89

// field: self-aminoacylation; key: AUUAUCCUGGCCAUCGAGUGA [Fam2.1 aminoacylation ribozyme variant] ; value = 1.92

// field: self-aminoacylation; key: CUACUUCAAACAAUGGGCCUG [Fam1A.1 aminoacylation ribozyme variant] ; value = 1.4

// field: self-aminoacylation; key: AAGUUUGCUAAUAGUCGCACC [Fam3.1 aminoacylation ribozyme variant] ; value = 0.81

// field: self-aminoacylation; key: AUUACCCUGGUAAUCAAGUGA [Fam2.1 aminoacylation ribozyme variant] ; value = 1.71

// field: self-aminoacylation; key: AUCCACCUAGGUCAGCGGGUG [Fam2.2 aminoacylation ribozyme variant] ; value = 3.68

====

tested on: biotinyl-Val-oxazolone; test: self-aminoacylation, catalytic enhancement (BVO) (fold over background); higher = more active; k-Seq, kA / k0A0; sequences stand for … in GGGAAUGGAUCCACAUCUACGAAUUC…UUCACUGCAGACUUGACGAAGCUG
Fewer inactive variants are shown than the library holds.
Listed below: self-aminoacylation values for each entry.
// return a plain number; no unit text

Before answering, review these 3 worked examples.
- AGUUACCUAGGUCAUCGGGUG [Fam2.2 aminoacylation ribozyme variant]: 4.62
- AAGUUUUCUGAUAGUCGCAAG [Fam3.1 aminoacylation ribozyme variant]: 1.38
- AUUCACCUAGGCCACCGGGUG [Fam2.2 aminoacylation ribozyme variant]: 3.27

// field: self-aminoacylation; key: ACUGCCCUGGUCAUCGAGUGA [Fam2.1 aminoacylation ribozyme variant] ; value = 14.9

// field: self-aminoacylation; key: CCACACUUCUAGCAAUCGGUC [Fam1B.1 aminoacylation ribozyme variant] ; value = 0.852

// field: self-aminoacylation; key: CUACUGCUAACAAUCGGUCUG [Fam1A.1 aminoacylation ribozyme variant] ; value = 0.559

// field: self-aminoacylation; key: AUUCCCCUAGGUCAUCGGGCG [Fam2.2 aminoacylation ribozyme variant] ; value = 11.3

// field: self-aminoacylation; key: AUUACCCUGGACACCGAGUGA [Fam2.1 aminoacylation ribozyme variant] ; value = 1.83

// field: self-aminoacylation; key: CCAAACUUCAAACAAUCGGUC [Fam1B.1 aminoacylation ribozyme variant] ; value = 1.52
